Test system: HT29 colon
METHOD_SUMMARY: NCI-60 one-dose screen, 48 h
PARTICULARS: 10 µM unless noted
This is part of a sample that, as a whole, favours compounds with a hit. Of some 83,000 tested, about 20% had one in any assay. The source made the active and inactive calls. The calls were made as follows: active = growth percent below 10; inactive = the rest.
Possible outcomes: class 1 = active, class 0 = inactive

>>> label_class("N#CC1=C(N)Oc2c(sc3c(Br)cccc23)C1c1ccc([N+](=O)[O-])cc1 (stereo unspecified)")
"class 1"
>>> label_class("C/C=C(\\C)C(=O)N[C@H]1[C@@H](OC(C)=O)C[C@]2(C)C3CC[C@@]4(C)C(CC[C@@H]4C(C)N(C)C)C3CCC2[C@H]1O (stereo partly specified)")
"class 0"
>>> label_class("COc1ccc2nc(NCCCNCCO)c3sc4ccc(F)cc4c(=O)c3c2c1")
"class 1"
>>> label_class("COc1cc(C(=O)/C=C/c2sc(Cl)nc2Cl)cc(OC)c1OC")
"class 0"
>>> label_class("COc1ccc(C(=O)COC(=O)[C@H](C[Se][Se]C[C@H](NC(=O)c2ccc(Br)cc2F)C(=O)OCC(=O)c2ccc(OC)cc2)NC(=O)c2ccc(Br)cc2F)cc1")
"class 0"
>>> label_class("COC(=O)C(Cc1ccccc1)NC(=O)NC(=O)NC(=O)CI (stereo unspecified)")
"class 0"
>>> label_class("COc1cccc(Cc2nn3cc(-c4ccccc4)nc3s2)c1")
"class 0"
>>> label_class("C[C@H](C(=O)Nc1ccc(S(N)(=O)=O)cc1)S(=O)(=O)c1ccccc1")
"class 0"
>>> label_class("O=C(N/N=C/c1c(Cl)cccc1Cl)c1ccc(C(F)(F)F)nc1Nc1cccc(C(F)(F)F)c1")
"class 0"
>>> label_class("C=C1C(=O)O[C@H]2[C@H]1CC/C(COC(=O)C(C)c1ccc(CC(C)C)cc1)=C\\CC[C@@]1(C)O[C@@H]21 (stereo partly specified)")
"class 1"
>>> label_class("COc1cc(/C=C/c2c(C(C)=O)c(C)nc3ccccc23)cc(OC)c1OC")
"class 0"
>>> label_class("Cc1ccc(-c2nc(N3CCN(C(=O)Nc4ccc(Cl)c(C(F)(F)F)c4)CC3)c3ccccc3n2)cc1")
"class 0"
>>> label_class("Cc1nc2ccccc2n1-c1ncnc2c1CC(C)c1ccccc1N2C (stereo unspecified)")
"class 0"
>>> label_class("C#Cc1cccc(NC(=O)Nc2ccccc2NC(=O)CCl)c1")
"class 1"
>>> label_class("CNc1nc2c(s1)C(c1cccc(F)c1)CC(=O)N2 (stereo unspecified)")
"class 0"
>>> label_class("BrCCCc1n(Cc2ccc3ccccc3c2)c2ccccc2[n+]1Cc1ccc2ccccc2c1")
"class 1"
>>> label_class("c1ccc2cc(C[n+]3ccn(CCCCCCn4cc[n+](Cc5ccc6ccccc6c5)c4)c3)ccc2c1")
"class 0"
>>> label_class("C[C@H]1[C@H]2[C@H]3CC[C@@H]4[C@@]5(C)CC[C@H](O)C(C)(C)[C@@H]5CC[C@@]4(C)[C@]3(C)CC[C@]23CO[C@]1(C)[C@@H](C(=O)/C=C\\c1cccnc1)C3")
"class 0"
>>> label_class("COc1ccc2c(c1)c(-c1ccc(-c3cn(C)c4ccc(OC)cc34)o1)cn2C")
"class 0"
>>> label_class("CCOC(=O)CC1C(COC(=O)NC)OC(n2cnc3c(NC(=O)Nc4ccccc4)ncnc32)C1O[Si](C)(C)C(C)(C)C (stereo unspecified)")
"class 1"
>>> label_class("CC1CN(C2CCCCC2)C(=S)N(c2ccccc2)C1=O (stereo unspecified)")
"class 0"
>>> label_class("CC(=O)CC(c1ccccc1)c1c(C)[nH]c2ccccc12 (stereo unspecified)")
"class 0"
>>> label_class("Cc1[nH]c(C(=O)Nc2ccc(C(=O)NCCN)cc2OC(C)C)c(Cl)c1Cl")
"class 1"
>>> label_class("O=C(Nc1c2ccccc2nc2ccccc12)c1ccccc1CN1C(=O)c2ccccc2C1=O")
"class 0"
>>> label_class("C=C1C(=O)O[C@H]2[C@H]1CC/C(COC(=O)NCCOCCOCC(=O)Nc1ccc(OC)c(C(N)=O)c1O)=C\\CC[C@@]1(C)O[C@@H]21")
"class 0"
>>> label_class("c1ccc(CO[C@H]2CO[C@H]3[C@@H]2OC[C@@H]3Oc2ccc(Nc3ncnc4ccsc34)cc2)cc1")
"class 0"
>>> label_class("CCCCNc1nc(NN2C(=O)c3cccc4cccc(c34)C2=O)nc(-n2cnc3ccccc32)n1")
"class 0"
>>> label_class("O=C(N/N=C/c1ccc(Cl)cc1)c1ccc(C(F)(F)F)nc1Nc1cccc(C(F)(F)F)c1")
"class 0"
>>> label_class("CCCC1CCC(O)(C(C)(O)C(=O)NC2C(=O)N3NCCCC3C(=O)N(O)C(C)C(=O)N3NCCCC3C(=O)N3NCC(O)CC3C(=O)NC(C)C(=O)OC2C(C)C)OC1CC (stereo unspecified)")
"class 1"
>>> label_class("Cc1ncc(C(=O)Nc2ccc(CN3CCN(C)CC3)c(C(F)(F)F)c2)cc1C#Cc1ccc(N)nc1")
"class 0"
>>> label_class("Nc1nc2ccccc2c2c(=O)c3cc(F)ccc3sc12")
"class 0"
>>> label_class("CCn1cnc2c1c(=O)[nH]c(=O)n2CC1CCC(CNS(=O)(=O)c2ccc(OC3CCOCC3)c(F)c2)CC1 (stereo unspecified)")
"class 0"
>>> label_class("COc1ccc(C(=O)C(C)C)c2ccccc12")
"class 0"
>>> label_class("COc1ccc(OC)c(/C=C/C(=O)N/N=C/c2ccc(Cl)cc2)c1")
"class 1"
>>> label_class("Cc1ccc(-c2nc(N3CCN(C(=O)c4ccc(OC(F)(F)F)cc4)CC3)c3ccccc3n2)cc1")
"class 0"
>>> label_class("O=C1/C(=C/c2ccc(F)cc2)Sc2c(Br)cccc21")
"class 0"

====

Each entry below lists one item and its recorded growth value.
Tested on: M14 melanoma
METHOD_SUMMARY: NCI-60 one-dose screen, 48 h (100 = growth as untreated, 0 = no growth, -100 = all killed)
PARTICULARS: 10 µM unless noted
About 83,000 compounds went through this panel and 20% of them were active in at least one assay; those are over-represented in the sample as a whole.
ASSAY_ENDPOINT: growth (%)

>>> recorded_measurement("NC(=O)C1(Nc2ccc(Br)cc2)CCCC1")
97.1
>>> recorded_measurement("CCOC(=O)c1cn2ncnc(Oc3ccc(NC(=O)NCCN4CCN(C)CC4)c(Cl)c3)c2c1C")
-23.7
>>> recorded_measurement("C=C1C(=O)O[C@H]2[C@H]1CC/C(COC(=O)CCC(=O)NCCOCCOCC(=O)Nc1ccc(OC)c(C(N)=O)c1O)=C\\CC[C@@]1(C)O[C@@H]21")
93.3
>>> recorded_measurement("O=C(N/N=C/c1ccc(Cl)cc1)c1ccc(C(F)(F)F)nc1Nc1cccc(C(F)(F)F)c1")
42.7
>>> recorded_measurement("COc1ccc(/C=C(\\C#N)n2nnc3c(F)cccc32)cc1")
-16.2
>>> recorded_measurement("CCc1cccc2c1S/C(=C/c1ccc(Cl)cc1)C2=O")
99.1
>>> recorded_measurement("COc1ccc(-c2c(C(=O)NS(C)(=O)=O)n(Cc3cccc(C(F)(F)F)c3)c3ccccc23)cc1")
94.6
>>> recorded_measurement("O=C(N=c1oc2ccccc2cc1-c1cc2ccccc2[nH]1)Nc1ccc(Cl)cc1")
79.6
>>> recorded_measurement("Cc1ccc(C(=O)N/N=C/c2cccc([N+](=O)[O-])c2)cn1")
112

====

Tested on: NCI-H322M lung
METHOD_SUMMARY: NCI-60 one-dose screen, 48 h (100 = growth as untreated, 0 = no growth, -100 = all killed)
PARTICULARS: 10 µM unless noted
About 83,000 compounds went through this panel and 20% of them were active in at least one assay; those are over-represented in the sample as a whole.
API: label(entry) gives met if the entry's growth is strictly smaller than 90%; on equality or larger values it gives not met.

>>> label_class("O=c1c2cccc(F)c2sc2c(NCCCNCCO)nc3ccccc3c12")
"met"
>>> label_class("CC/C=C\\C[C@@H]1C/C=C2/C(=O)C=C[C@H]2C/C=C\\CCCC(=O)O1")
"met"
>>> label_class("COc1cc2oc(-c3ccc(O)cc3)cc(=O)c2c(O)c1-c1c(OC)cc(O)c2c(=O)cc(-c3ccc(O)cc3)oc12")
"met"
>>> label_class("COC(=O)CCC/C=C\\C[C@H]1C=CC(=O)/C1=C/C[C@@H](O)CCc1cccc(C(F)(F)F)c1")
"met"
>>> label_class("CNC(C)[C@H]1CCC2C3CCC4C[C@@H](N(C)C(=O)c5ccccc5)CC[C@]4(C)C3CC[C@@]21C (stereo partly drawn)")
"met"
>>> label_class("CN1CCN(c2ccc(-c3ccc4ncc(C#N)c(Nc5ccc(F)c(Cl)c5)c4c3)cn2)CC1")
"met"
>>> label_class("CN1CCN(c2ccc(-c3cnc4c(-c5csc6ccccc56)cnn4c3)cc2)CC1")
"met"
>>> label_class("C=CCNc1ccc2c3c(cccc13)C(=O)N(N1C(=O)c3cccc4cccc(c34)C1=O)C2=O")
"not met"
>>> label_class("CCc1ccc(Oc2c(-c3ccc(OCCc4cccc(C(F)(F)F)c4)cc3O)n[nH]c2C(F)(F)F)cc1")
"met"
>>> label_class("O=c1c2cc(F)ccc2sc2c(NCCN3CCOCC3)nc3ccccc3c12")
"met"
>>> label_class("C/C(=C\\C(=O)c1ccc(Cl)cc1)c1ccc(Cl)cc1")
"met"
>>> label_class("COc1c(B(O)O)cc(F)cc1-c1nc2ccc3[nH]ncc3c2c2c1CCCC2")
"met"
>>> label_class("COc1ccc(S(=O)(=O)n2c3ccccc3n3ncc(-c4nnc(C)o4)c23)cc1")
"met"
>>> label_class("COc1ccc(-c2[nH]ncc2-c2cc3c(c(OC)c2)OCC(=O)N3)cc1")
"met"
>>> label_class("C#C[C@]1(O)CC[C@H]2[C@@H]3CC=C4c5sc(Nc6ccccc6)nc5CC[C@]4(C)[C@H]3CC[C@@]21C")
"met"
>>> label_class("CCOC(=O)Nc1ccc(C(=O)/C=C/c2ccccc2)cc1")
"not met"
>>> label_class("CCOC(=O)CCN(C(=O)Nc1ccccc1)C1CCCCC1")
"not met"
>>> label_class("Cc1ccc(C(=O)NN2C(=O)CSC2c2cccc([N+](=O)[O-])c2)cn1 (stereo not drawn)")
"not met"
>>> label_class("O=S(=O)(Nc1ccc(-c2nc(-c3cccc(OCCN4CCOCC4)c3)c(-c3ccnc(Br)c3)[nH]2)cc1)c1ccccc1")
"met"
>>> label_class("CCOC(=O)Nc1ccc(-c2nc(-c3cccc(OC)c3)c(-c3ccnc(Br)c3)[nH]2)cc1")
"met"
>>> label_class("O=C1NC(=O)C(c2ccccc2)(c2ccccc2)N1Cc1cn(-c2c3ccccc3nc3ccccc23)nn1")
"not met"
>>> label_class("O=c1c2cc(F)ccc2sc2c(NCCO)nc3ccccc3c12")
"not met"
>>> label_class("O=S(=O)(NCCCNc1cc(-c2c(-c3cccc(O)c3)nc3sccn23)ccn1)c1cccc2ccccc12")
"met"
>>> label_class("CCn1cnc2c1c(=O)[nH]c(=O)n2CC1CCC(CNS(=O)(=O)c2ccc(OC3CCOCC3)c(F)c2)CC1 (stereo not drawn)")
"met"
>>> label_class("COc1ccc2sc3c(NCCO)nc4ccccc4c3c(=O)c2c1")
"not met"
>>> label_class("CCOC(=O)c1cn2ncnc(Oc3ccc(NC(=O)NCCN4CCN(C)CC4)c(Cl)c3)c2c1C")
"not met"
>>> label_class("S=C(c1cccs1)N1CCN(c2cccc(Cl)c2)CC1")
"not met"
>>> label_class("CCC(C)(c1cc(C(C)(C)C)c(O)c(C(C)(C)C)c1)c1cc(C(C)(C)C)c(O)c(C(C)(C)C)c1")
"not met"
>>> label_class("CSc1ccc2c(c1)c(CCN)c(C)n2Cc1ccc(Cl)c(Cl)c1")
"met"
>>> label_class("CC([C@H]1CCC2C3CCC4C[C@@H](NC=O)CC[C@]4(C)C3CC[C@@]21C)N(C)C (stereo partly drawn)")
"met"
>>> label_class("Cn1cc(-c2cc3ncnc(Nc4ccc(CC(=O)Nc5cc(C(C)(C)C)on5)cc4)c3s2)cn1")
"met"
